TEST: TOX21_p53_BLA_p2_viability: Viability Assessment in the Tox21 HCT-116 p53 Agonism Beta-lactamase Assay, Phase 2 (AID 2283591);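 further: compound exposure lasted 16 h at 37 °C; actives lower the ATP signal meaning cytotoxicity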
Inconclusive results are not listed. Active and inactive are the calls of the source. How the source made its calls: active means hit-call score of the fitted dose curve at least 0.9, where 1 is the maximum; inconclusive means response in the unintended direction; inactive means score below 0.9.
The reply should be one of these categories: active, inactive

IN: Give the logged outcome of this assay for the following compound: `OCC(c1ccc(Cl)cc1)c1ccc(Cl)cc1`
OUT: active

IN: Give the logged outcome of this assay for the following compound: `Nc1nc(=S)[nH][nH]1`
OUT: inactive

IN: Give the logged outcome of this assay for the following compound: `CCOP(=S)(OCC)O/N=C(\C#N)c1ccccc1`
OUT: inactive

IN: Give the logged outcome of this assay for the following compound: CC(C)=CC1C(C(=O)OCc2cccc(Oc3ccccc3)c2)C1(C)C (stereo not given)
OUT: inactive

IN: Give the logged outcome of this assay for the following compound: `CN(N=O)C(N)=O`
OUT: inactive

IN: Give the logged outcome of this assay for the following compound: `CCN(N=O)C(N)=O`
OUT: inactive

IN: Give the logged outcome of this assay for the following compound: `CCC[N+](CCC)(CCC)CCC`
OUT: inactive

IN: Give the logged outcome of this assay for the following compound: `CCOP(=S)(OCC)SCSc1cc(Cl)ccc1Cl`
OUT: inactive

IN: Give the logged outcome of this assay for the following compound: CCOC(=O)C(SP(=S)(OC)OC)c1ccccc1 (stereo not given)
OUT: inactive

IN: Give the logged outcome of this assay for the following compound: `O=C(NC(=O)c1c(F)cccc1F)Nc1cc(Cl)c(Oc2ncc(C(F)(F)F)cc2Cl)c(Cl)c1`
OUT: inactive

IN: Give the logged outcome of this assay for the following compound: `CCCCN(CCCCO)N=O`
OUT: inactive

IN: Give the logged outcome of this assay for the following compound: `CC(=Cc1ccccc1)[N+](=O)[O-]`
OUT: inactive

IN: Give the logged outcome of this assay for the following compound: `O=S1(=O)OC(c2cc(Br)c(O)c(Br)c2)(c2cc(Br)c(O)c(Br)c2)c2ccccc21`
OUT: inactive

IN: Give the logged outcome of this assay for the following compound: O=C1c2ccccc2C(=O)C1C(=O)C(c1ccccc1)c1ccc(Cl)cc1 (stereo not given)
OUT: active

IN: Give the logged outcome of this assay for the following compound: N#CCCC(Br)(C#N)CBr (stereo not given)
OUT: inactive

IN: Give the logged outcome of this assay for the following compound: `O=C(CCl)NCO`
OUT: inactive

IN: Give the logged outcome of this assay for the following compound: `CCOC(=O)CC(=O)CCl`
OUT: inactive

IN: Give the logged outcome of this assay for the following compound: `c1csc(-c2ccc(-c3cccs3)s2)c1`
OUT: inactive

IN: Give the logged outcome of this assay for the following compound: `COc1ccc(N)cc1`
OUT: inactive

IN: Give the logged outcome of this assay for the following compound: `O=[N+]([O-])c1cc([As](=O)(O)O)ccc1O`
OUT: inactive

IN: Give the logged outcome of this assay for the following compound: `Cc1cc(C(C)(C)c2ccc(O)c(C)c2)ccc1O`
OUT: inactive

IN: Give the logged outcome of this assay for the following compound: `[F][Sn]([c]1ccccc1)([c]1ccccc1)[c]1ccccc1`
OUT: active

IN: Give the logged outcome of this assay for the following compound: `Clc1cc(C(Cl)(Cl)Cl)cnc1Cl`
OUT: inactive

IN: Give the logged outcome of this assay for the following compound: `O=[N+]([O-])c1cccc2ccccc12`
OUT: inactive

IN: Give the logged outcome of this assay for the following compound: `CCCCCCCCCCCCN(C)C`
OUT: inactive

IN: Give the logged outcome of this assay for the following compound: `O=C(O)COc1ccc(Cl)cc1`
OUT: inactive

IN: Give the logged outcome of this assay for the following compound: CC(O)(CS(=O)(=O)c1ccc(F)cc1)C(=O)Nc1ccc(C#N)c(C(F)(F)F)c1 (stereo not given)
OUT: inactive

IN: Give the logged outcome of this assay for the following compound: `CC(C)(C#N)N=NC(C)(C)C#N`
OUT: inactive

IN: Give the logged outcome of this assay for the following compound: `CC1(C)[C@H](/C=C2\CCSC2=O)[C@@H]1C(=O)OCc1coc(Cc2ccccc2)c1`
OUT: inactive

IN: Give the logged outcome of this assay for the following compound: `Nc1ccc(Br)cc1`
OUT: inactive
